# Tested on: HeLa Kyoto
# assay.explanation: thermal stability score vs G1/S (z-score of summed log2 fold changes over temperatures); higher = more thermally stable than in G1/S
# experimental.conditions: cell cycle stage: mitosis
// label = condition met if thermal stability score is not less than -0.3, otherwise condition not met

{"columns": ["sequence.input", "experimental.target", "class"],
 "data": [
  ["MDSFNYTTPDYGHYDDKDTLDLNTPVDKTSNTLRVPDILALVIFAVVFLVGVLGNALVVWVTAFEAKRTINAIWFLNLAVADFLSCLALPILFTSIVQHHHWPFGGAACSILPSLILLNMYASILLLATISADRFLLVFKPIWCQNFRGAGLAWIACAVAWGLALLLTIPSFLYRVVREEYFPPKVLCGVDYSHDKRRERAVAIVRLVLGFLWPLLTLTICYTFILLRTWSRRATRSTKTLKVVVAVVASFFIFWLPYQVTGIMMSFLEPSSPTFLLLKKLDSLCVSFAYINCCINPIIYVVAGQGFQGRLRKSLPSLLRNVLTEESVVRESKSFTRSTVDTMAQKTQAV [C5AR1]", "HeLa Kyoto", "condition not met"],
  ["MAATFFGEVVKAPCRAGTEDEEEEEEGRRETPEDREVRLQLARKREVRLLRRQTKTSLEVSLLEKYPCSKFIIAIGNNAVAFLSSFVMNSGVWEEVGCAKLWNEWCRTTDTTHLSSTEAFCVFYHLKSNPSVFLCQCSCYVAEDQQYQWLEKVFGSCPRKNMQITILTCRHVTDYKTSESTGSLPSPFLRALKTQNFKDSACCPLLEQPNIVHDLPAAVLSYCQVWKIPAILYLCYTDVMKLDLITVEAFKPILSTRSLKGLVKNIPQSTEILKKLMTTNEIQSNIYT [PSMG1]", "HeLa Kyoto", "condition not met"],
  ["MARMNRPAPVEVTYKNMRFLITHNPTNATLNKFIEELKKYGVTTIVRVCEATYDTTLVEKEGIHVLDWPFDDGAPPSNQIVDDWLSLVKIKFREEPGCCIAVHCVAGLGRAPVLVALALIEGGMKYEDAVQFIRQKRRGAFNSKQLLYLEKYRPKMRLRFKDSNGHRNNCCIQ [PTP4A1]", "HeLa Kyoto", "condition not met"],
  ["MNNLSFSELCCLFCCPPCPGKIASKLAFLPPDPTYTLMCDESGSRWTLHLSERADWQYSSREKDAIECFMTRTSKGNRIACMFVRCSPNAKYTLLFSHGNAVDLGQMSSFYIGLGSRINCNIFSYDYSGYGASSGKPTEKNLYADIEAAWLALRTRYGIRPENVIIYGQSIGTVPSVDLAARYESAAVILHSPLTSGMRVAFPDTKKTYCFDAFPNIDKISKITSPVLIIHGTEDEVIDFSHGLALFERCQRPVEPLWVEGAGHNDVELYGQYLERLKQFVSQELVNL [ABHD17B]", "HeLa Kyoto", "condition not met"],
  ["MREYKVVVLGSGGVGKSALTVQFVTGSFIEKYDPTIEDFYRKEIEVDSSPSVLEILDTAGTEQFASMRDLYIKNGQGFILVYSLVNQQSFQDIKPMRDQIIRVKRYERVPMILVGNKVDLEGEREVSYGEGKALAEEWSCPFMETSAKNKASVDELFAEIVRQMNYAAQPNGDEGCCSACVIL [RAP2B]", "HeLa Kyoto", "condition met"]
]}

* * *

# Test system: HeLa Kyoto
# assay.explanation: thermal stability score vs G1/S (z-score of summed log2 fold changes over temperatures); higher = more thermally stable than in G1/S
# experimental.conditions: cell cycle stage: early G1 (4.5 h after nocodazole release)

{"columns": ["sequence.input", "thermal stability score"],
 "data": [
  ["MPGSAAKGSELSERIESFVETLKRGGGPRSSEEMARETLGLLRQIITDHRWSNAGELMELIRREGRRMTAAQPSETTVGNMVRRVLKIIREEYGRLHGRSDESDQQESLHKLLTSGGLNEDFSFHYAQLQSNIIEAINELLVELEGTMENIAAQALEHIHSNEVIMTIGFSRTVEAFLKEAARKRKFHVIVAECAPFCQGHEMAVNLSKAGIETTVMTDAAIFAVMSRVNKVIIGTKTILANGALRAVTGTHTLALAAKHHSTPLIVCAPMFKLSPQFPNEEDSFHKFVAPEEVLPFTEGDILEKVSVHCPVFDYVPPELITLFISNIGGNAPSYIYRLMSELYHPDDHVL [EIF2B2]", 1.74],
  ["MSGCRVFIGRLNPAAREKDVERFFKGYGRIRDIDLKRGFGFVEFEDPRDADDAVYELDGKELCSERVTIEHARARSRGGRGRGRYSDRFSSRRPRNDRRNAPPVRTENRLIVENLSSRVSWQDLKDFMRQAGEVTFADAHRPKLNEGVVEFASYGDLKNAIEKLSGKEINGRKIKLIEGSKRHSRSRSRSRSRTRSSSRSRSRSRSRSRKSYSRSRSRSRSRSRSKSRSVSRSPVPEKSQKRGSSSRSKSPASVDRQRSRSRSRSRSVDSGN [SRSF5]", 1.65],
  ["MAGDVGGRSCTDSELLLHPELLSQEFLLLTLEQKNIAVETDVRVNKDSLTDLYVQHAIPLPQRDLPKNRWGKMMEKKREQHEIKNETKRSSTVDGLRKRPLIVFDGSSTSTSIKVKKTENGDNDRLKPPPQASFTSNAFRKLSNSSSSVSPLILSSNLPVNNKTEHNNNDAKQNHDLTHRKSPSGPVKSPPLSPVGTTPVKLKRAAPKEEAEAMNNLKPPQAKRKIQHVTWP [C2ORF49]", -1.3]
]}

* * *

# Test system: HeLa Kyoto
# assay.explanation: melting temperature (median over replicates), in situ; higher = more thermally stable
# experimental.conditions: cell cycle stage: mitosis

{"columns": ["sequence.input", "melting temperature / °C"],
 "data": [
  ["MSDFDSNPFADPDLNNPFKDPSVTQVTRNVPPGLDEYNPFSDSRTPPPGGVKMPNVPNTQPAIMKPTEEHPAYTQIAKEHALAQAELLKRQEELERKAAELDRREREMQNLSQHGRKNNWPPLPSNFPVGPCFYQDFSVDIPVEFQKTVKLMYYLWMFHAVTLFLNIFGCLAWFCVDSARAVDFGLSILWFLLFTPCSFVCWYRPLYGAFRSDSSFRFFVFFFVYICQFAVHVLQAAGFHNWGNCGWISSLTGLNQNIPVGIMMIIIAALFTASAVISLVMFKKVHGLYRTTGASFEKAQQEFATGVMSNKTVQTAAANAASTAASSAAQNAFKGNQI [SCAMP1]", 56],
  ["MAPNIYLVRQRISRLGQRMSGFQINLNPLKEPLGFIKVLEWIASIFAFATCGGFKGQTEIQVNCPPAVTENKTVTATFGYPFRLNEASFQPPPGVNICDVNWKDYVLIGDYSSSAQFYVTFAVFVFLYCIAALLLYVGYTSLYLDSRKLPMIDFVVTLVATFLWLVSTSAWAKALTDIKIATGHNIIDELPPCKKKAVLCYFGSVTSMGSLNVSVIFGFLNMILWGGNAWFVYKETSLHSPSNTSAPHSQGGIPPPTGI [SYPL1]", 56.9],
  ["MSEDLAKQLASYKAQLQQVEAALSGNGENEDLLKLKKDLQEVIELTKDLLSTQPSETLASSDSFASTQPTHSWKVGDKCMAVWSEDGQCYEAEIEEIDEENGTAAITFAGYGNAEVTPLLNLKPVEEGRKAKEDSGNKPMSKKEMIAQQREYKKKKALKKAQRIKELEQEREDQKVKWQQFNNRAYSKNKKGQVKRSIFASPESVTGKVGVGTCGIADKPMTQYQDTSKYNVRHLMPQ [SMNDC1]", 55.9],
  ["MAYQLYRNTTLGNSLQESLDELIQSQQITPQLALQVLLQFDKAINAALAQRVRNRVNFRGSLNTYRFCDNVWTFVLNDVEFREVTELIKVDKVKIVACDGKNTGSNTTE [GTF2A2]", 53.4],
  ["MLVVEVANGRSLVWGAEAVQALRERLGVGGRTVGALPRGPRQNSRLGLPLLLMPEEARLLAEIGAVTLVSAPRPDSRHHSLALTSFKRQQEESFQEQSALAAEARETRRQELLEKITEGQAAKKQKLEQASGASSSQEAGSSQAAKEDETSDGQASGEQEEAGPSSSQAGPSNGVAPLPRSALLVQLATARPRPVKARPLDWRVQSKDWPHAGRPAHELRYSIYRDLWERGFFLSAAGKFGGDFLVYPGDPLRFHAHYIAQCWAPEDTIPLQDLVAAGRLGTSVRKTLLLCSPQPDGKVVYTSLQWASLQ [TSEN34]", 49.8],
  ["MMEDDGQPRTLYVGNLSRDVTEVLILQLFSQIGPCKSCKMITEHTSNDPYCFVEFYEHRDAAAALAAMNGRKILGKEVKVNWATTPSSQKKDTSNHFHVFVGDLSPEITTEDIKSAFAPFGKISDARVVKDMATGKSKGYGFVSFYNKLDAENAIVHMGGQWLGGRQIRTNWATRKPPAPKSTQENNTKQLRFEDVVNQSSPKNCTVYCGGIASGLTDQLMRQTFSPFGQIMEIRVFPEKGYSFVRFSTHESAAHAIVSVNGTTIEGHVVKCYWGKESPDMTKNFQQVDYSQWGQWSQVYGNPQQYGQYMANGWQVPPYGVYGQPWNQQGFGVDQSPSAAWMGGFGAQPPQGQAPPPVIPPPNQAGYGMASYQTQ [TIAL1]", 52]
]}

Values from the supplement of paper PMC5998384
